Origin of the recorded values: patent US10266566B2

- EXPERIMENTAL_SYSTEM: α-chymotrypsin (Bos taurus, UniProt P00766)
- Construct: purchased Sigma Aldrich
- ASSAY_DETAILS: Resistance of peptide ligands to proteolytic digestion: IgG yield after contact with α-chymotrypsin
- Type: in vitro ADME
- COND: after contact with α-chymotrypsin in Tris buffer pH 8.5 for 10 minutes
Where a SMILES comes first, the peptide text is derived from it. [ ]: non-standard residue; d: D form. The star is where a group is joined. Trp(1-Me) = Cn1cc(C[C@H](N)C(=O)O)c2ccccc21; Phe(4-Me) = Cc1ccc(C[C@H](N)C(=O)O)cc1; Lys(Me2) = CN(C)CCCC[C@H](N)C(=O)O; Cit = NC(=O)NCCC[C@H](N)C(=O)O; For = O=C*
READOUT_KIND: IgG Yield 2nd run (after α-chymotrypsin) (%)

[[record]]
molecule = "CC(C)[C@H](NC(=O)[C@H](Cc1cn(C=O)c2ccccc12)NC(=O)CNC(=O)[C@H](CCCNC(N)=O)NC(=O)[C@H](Cc1cn(C=O)c2ccccc12)NC(=O)[C@@H](N)Cc1c[nH]cn1)C(=O)O [HWForCitGWForV] (H-HW(For)[Cit]GW(For)V-OH; N-terminus and C-terminus assumed)"
measured_number = 69

[[record]]
molecule = "COc1ccc(C[C@H](NC(=O)[C@@H](N)Cc2c[nH]cn2)C(=O)N[C@@H](Cc2ccc(C)cc2)C(=O)N[C@@H](CCCCN(C)C)C(=O)N[C@@H](Cc2ccc(C)cc2)C(=O)N[C@@H](CC(=O)O)C(=O)O)cc1 [HYMetFMetKMet2FMetD] (H-HY(Me)[Phe(4-Me)][Lys(Me2)][Phe(4-Me)]D-OH; N-terminus and C-terminus assumed)"
measured_number = 49

[[record]]
molecule = "CC(C)[C@H](NC(=O)[C@H](Cc1cn(C)c2ccccc12)NC(=O)CNC(=O)[C@H](CCCNC(N)=O)NC(=O)[C@H](Cc1cn(C)c2ccccc12)NC(=O)[C@@H](N)Cc1c[nH]cn1)C(=O)O [HWMetCitGWMetV] (H-H[Trp(1-Me)][Cit]G[Trp(1-Me)]V-OH; N-terminus and C-terminus assumed)"
measured_number = 91

[[record]]
molecule = "CC(C)[C@H](NC(=O)[C@H](Cc1c[nH]c2ccccc12)NC(=O)CNC(=O)[C@H](CCCNC(N)=O)NC(=O)[C@H](Cc1c[nH]c2ccccc12)NC(=O)[C@@H](N)Cc1c[nH]cn1)C(=O)O [HWCitGWV] (H-HW[Cit]GWV-OH; N-terminus and C-terminus assumed)"
measured_number = 73

[[record]]
molecule = "Cc1ccc(C[C@H](NC(=O)[C@@H](N)Cc2c[nH]cn2)C(=O)N[C@@H](CCCNC(N)=O)C(=O)N[C@@H](CCCNC(N)=O)C(=O)N[C@@H](Cc2c[nH]cn2)C(=O)N[C@@H](CC(C)C)C(=O)O)cc1 [HFMetCitCitHL] (H-H[Phe(4-Me)][Cit][Cit]HL-OH; N-terminus and C-terminus assumed)"
measured_number = 92

[[record]]
molecule = "CC(C)[C@H](NC(=O)[C@H](Cc1cn(C)c2ccccc12)NC(=O)CNC(=O)[C@H](CCCNC(=N)N)NC(=O)[C@H](Cc1cn(C)c2ccccc12)NC(=O)[C@@H](N)Cc1c[nH]cn1)C(=O)O [HWMetRGWMetV] (H-H[Trp(1-Me)]RG[Trp(1-Me)]V-OH; N-terminus and C-terminus assumed)"
measured_number = 91

